# testSystem: recombinant PRL-1 (Homo sapiens, UniProt Q93096)
# Construct: 6xHis (N, cleaved yes); made in house; host or cells: E. coli One Shot BL21 Star
# Sequence (Q93096 1-173): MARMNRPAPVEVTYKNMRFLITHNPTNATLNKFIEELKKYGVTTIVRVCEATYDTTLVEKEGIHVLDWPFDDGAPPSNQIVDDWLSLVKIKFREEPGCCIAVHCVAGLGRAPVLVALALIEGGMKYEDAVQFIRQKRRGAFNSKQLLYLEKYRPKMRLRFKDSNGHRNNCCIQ
# experimentalDetails: In vitro phosphatase assay (DiFMUP hydrolysis), PRL-1; also: test concentration or dose not given here
# Type: biochemical
# conditionSummary: FDA-approved drug screen; compared to DMSO
valueKind: % Phosphatase Activity (compared to DMSO) PRL-1
Units required after the number.

Lookup: Quick one: % Phosphatase Activity (compared to DMSO) PRL-1 of COC1=CC(=O)C[C@@H](C)[C@]12Oc1c(Cl)c(OC)cc(OC)c1C2=O [Griseofulvin] ?
Found: 112%

Lookup: Quick one: % Phosphatase Activity (compared to DMSO) PRL-1 of C[C@@H]1O[C@@H](OC[C@H]2O[C@@H](Oc3c(-c4ccc(O)c(O)c4)oc4cc(O)cc(O)c4c3=O)[C@H](O)[C@@H](O)[C@@H]2O)[C@H](O)[C@H](O)[C@H]1O [Rutin] ?
Found: 88%

Lookup: Quick one: % Phosphatase Activity (compared to DMSO) PRL-1 of C[C@H](CCC(=O)O)[C@H]1CC[C@H]2[C@@H]3CC[C@@H]4C[C@H](O)CC[C@]4(C)[C@H]3CC[C@]12C [Lithocholic acid] ?
Found: 82%

Lookup: Quick one: % Phosphatase Activity (compared to DMSO) PRL-1 of Cc1c(F)cc(C(=O)NC2CC2)cc1-c1ccc(C(=O)NCC(C)(C)C)cn1 [Losmapimod (GW856553X)] ?
Found: 91%
